# System: Aspergillus flavus
# Method description: Antifungal activity against drug-resistant Aspergillus flavus ATCC 16870 assessed as inhibition of cell wall synthesis in presence of sorbitol incubated for 24 hrs
# Type: functional
Measurement label: MIC (µg/mL)
Give the quantity in µg/mL, number only.

Example compounds with recorded MIC:
INSERT INTO assay_data (compound, units_symbol, numeric_result) VALUES
  ('O=C(CN1CCC(C(=O)Nc2ccc(Br)cc2)CC1)Nc1ccc2c(c1)NC(=O)C1(CCNC1=O)C2 (racemic)', 'µg/mL', 256),
  ('Cc1cc([N+](=O)[O-])ccc1NC(=O)C1CCN(CC(=O)Nc2ccc3c(c2)NC(=O)C2(CCNC2=O)C3)CC1 (racemic)', 'µg/mL', 256),
  ('NC(=O)OC[C@H](O)[C@@H](O)[C@H](N)C(=O)N[C@H](C(=O)O)[C@H]1O[C@@H](n2cc(CO)c(=O)[nH]c2=O)[C@H](O)[C@@H]1O', 'µg/mL', 512),
  ('O=C(/C=C/C(=O)Nc1cccc2ccccc12)Nc1ccc2c(c1)NC(=O)C1(CCNC1=O)C2 (racemic)', 'µg/mL', 64),
  ('O=C(CN1CCC(C(=O)Nc2cccc3ccccc23)CC1)Nc1ccc2c(c1)NC(=O)C1(CCNC1=O)C2 (racemic)', 'µg/mL', 128);

Prompt line: Provide MIC value for the following compound: O=C(CN1CCC(C(=O)Nc2cccc(Br)c2)CC1)Nc1ccc2c(c1)NC(=O)C1(CCNC1=O)C2 (racemic)
Response line: 256

Prompt line: Provide MIC value for the following compound: O=C(/C=C/C(=O)Nc1nc2ccccc2s1)Nc1ccc2c(c1)NC(=O)C1(CCNC1=O)C2 (racemic)
Response line: 128

Prompt line: Provide MIC value for the following compound: Cc1ccc(NC(=O)/C=C/C(=O)Nc2ccc3c(c2)NC(=O)C2(CCNC2=O)C3)cc1 (racemic)
Response line: 64

----------
# Tested on: Candida albicans
# Method description: Antifungal activity against micafungin-resistant Candida albicans ATCC 76615 assessed as inhibition of fungal growth incubated for 24 to 72 hrs
# Assay type: functional
# Experimental context: time 24-72 hrs
Listing of entries alongside the reported MIC.
Give the quantity in µg/mL, number only.

Example compounds with recorded MIC:
INSERT INTO results (compound, target_entity, measurement_label, numeric_result) VALUES
  ('O=C(CN1CCC(C(=O)Nc2cccc(Br)c2)CC1)Nc1ccc2c(c1)NC(=O)C1(CCNC1=O)C2 (racemic)', 'Candida albicans', 'MIC', 64),
  ('O=C(CN1CCC(C(=O)Nc2cccc3ccccc23)CC1)Nc1ccc2c(c1)NC(=O)C1(CCNC1=O)C2 (racemic)', 'Candida albicans', 'MIC', 32),
  ('O=C(/C=C/C(=O)Nc1nc2ccccc2s1)Nc1ccc2c(c1)NC(=O)C1(CCNC1=O)C2 (racemic)', 'Candida albicans', 'MIC', 64);

Prompt line: With Candida albicans as the test system, provide measured MIC for this compound: O=C(/C=C/C(=O)Nc1ccc2c(c1)NC(=O)C1(CCNC1=O)C2)Nc1ccc(Br)cc1 (racemic)
Response line: 32

----------
# System: Candida tropicalis
# Method description: Inhibition of chitin synthase extracted from Candida tropicalis ATCC 750 using UDP-GlcNAc as substrate assessed as inhibition rate at 300 ug/ml by TMB based microplate analyzer relative to control
# Experimental context: dose 300.0 µg/ml
Listing of entries alongside the reported inhibition.
Give the quantity in %, number only.

Example molecules with recorded inhibition:
INSERT INTO measurements (molecule, measurement_label, units_symbol, numeric_result) VALUES
  ('Cc1ccc(NC(=O)C2CCN(CC(=O)Nc3ccc4c(c3)NC(=O)C3(CCNC3=O)C4)CC2)cc1 (racemic)', 'inhibition', '%', 45.1),
  ('O=C(CN1CCC(C(=O)Nc2ccc(F)cc2)CC1)Nc1ccc2c(c1)NC(=O)C1(CCNC1=O)C2 (racemic)', 'inhibition', '%', 79.7),
  ('CCCCN(CCCC)C(=O)/C=C/C(=O)Nc1ccc2c(c1)NC(=O)C1(CCNC1=O)C2 (racemic)', 'inhibition', '%', 28.2),
  ('CCCNC(=O)/C=C/C(=O)Nc1ccc2c(c1)NC(=O)C1(CCNC1=O)C2 (racemic)', 'inhibition', '%', 36.9),
  ('CCCCCNC(=O)/C=C/C(=O)Nc1ccc2c(c1)NC(=O)C1(CCNC1=O)C2 (racemic)', 'inhibition', '%', 37.9);

As a next step, examine the molecule that follows.
Prompt line: Provide inhibition value for the following molecule: COc1ccc(NC(=O)/C=C/C(=O)Nc2ccc3c(c2)NC(=O)C2(CCNC2=O)C3)cc1 (racemic)
Response line: 49.3

----------
# System: Cryptococcus neoformans
# Method description: Antifungal activity against Cryptococcus neoformans ATCC 32719 assessed as inhibition of growth incubated for 24 hrs by two-fold serial dilution method
# Type: functional
Listing of entries alongside the reported MIC.
Give the quantity in µg/mL, number only.

Example molecules with recorded MIC:
INSERT INTO assay_data (molecule, target_entity, measurement_label, numeric_result) VALUES
  ('O=C(/C=C/C(=O)Nc1nccs1)Nc1ccc2c(c1)NC(=O)C1(CCNC1=O)C2 (racemic)', 'Cryptococcus neoformans', 'MIC', 32),
  ('O=C(CN1CCC(C(=O)Nc2ccc(Cl)cc2)CC1)Nc1ccc2c(c1)NC(=O)C1(CCNC1=O)C2 (racemic)', 'Cryptococcus neoformans', 'MIC', 32),
  ('OC(Cn1cncn1)(Cn1cncn1)c1ccc(F)cc1F [FLUCONAZOLE]', 'Cryptococcus neoformans', 'MIC', 8);

Prompt line: Provide MIC value for the following molecule: CC(C)NC(=O)/C=C/C(=O)Nc1ccc2c(c1)NC(=O)C1(CCNC1=O)C2 (racemic)
Response line: 128

Prompt line: Provide MIC value for the following molecule: CCCCNC(=O)/C=C/C(=O)Nc1ccc2c(c1)NC(=O)C1(CCNC1=O)C2 (racemic)
Response line: 128

----------
Listing of entries alongside the reported inhibition.
# Tested on: Candida tropicalis
# Method description: Inhibition of chitin synthase extracted from Candida tropicalis ATCC 750 using UDP-GlcNAc as substrate assessed as inhibition rate at 300 ug/ml by TMB based microplate analyzer relative to control
# Experimental context: dose 300.0 µg/ml
Note: a bare number is incomplete; add the unit.

INSERT INTO assay_data (molecule, target_entity, measurement_label, result) VALUES
  ('CCCCNC(=O)C1CCN(CC(=O)Nc2ccc3c(c2)NC(=O)C2(CCNC2=O)C3)CC1 (racemic)', 'Candida tropicalis', 'inhibition', '18.2%'),
  ('COc1ccccc1NC(=O)C1CCN(CC(=O)Nc2ccc3c(c2)NC(=O)C2(CCNC2=O)C3)CC1 (racemic)', 'Candida tropicalis', 'inhibition', '39.7%'),
  ('CC(C)NC(=O)/C=C/C(=O)Nc1ccc2c(c1)NC(=O)C1(CCNC1=O)C2 (racemic)', 'Candida tropicalis', 'inhibition', '34.6%');

Prompt line: Provide inhibition value for the following molecule: O=C(CN1CCC(C(=O)Nc2ccc(Br)cc2)CC1)Nc1ccc2c(c1)NC(=O)C1(CCNC1=O)C2 (racemic)
Response line: 63%

----------
# Test system: Aspergillus fumigatus
# Method description: Antifungal activity against Aspergillus fumigatus GIMCC 3.19 assessed as inhibition of growth incubated for 24 hrs by two-fold serial dilution method
# Assay type: functional
Measurement label: MIC (µg/mL)
Give the quantity in µg/mL, number only.

Example compounds with recorded MIC:
INSERT INTO assay_data (compound, measurement_label, units_symbol, numeric_result) VALUES
  ('O=C(/C=C/C(=O)Nc1ccc2c(c1)NC(=O)C1(CCNC1=O)C2)Nc1ccc(Cl)cc1 (racemic)', 'MIC', 'µg/mL', 32),
  ('CC(C)NC(=O)/C=C/C(=O)Nc1ccc2c(c1)NC(=O)C1(CCNC1=O)C2 (racemic)', 'MIC', 'µg/mL', 64),
  ('O=C(CN1CCC(C(=O)Nc2cccc(Br)c2)CC1)Nc1ccc2c(c1)NC(=O)C1(CCNC1=O)C2 (racemic)', 'MIC', 'µg/mL', 32),
  ('O=C(CN1CCC(C(=O)Nc2nccs2)CC1)Nc1ccc2c(c1)NC(=O)C1(CCNC1=O)C2 (racemic)', 'MIC', 'µg/mL', 256),
  ('O=C(/C=C/C(=O)Nc1ccc2c(c1)NC(=O)C1(CCNC1=O)C2)Nc1ccccc1 (racemic)', 'MIC', 'µg/mL', 32);

Prompt line: Provide MIC value for the following compound: CCCCCCNC(=O)C1CCN(CC(=O)Nc2ccc3c(c2)NC(=O)C2(CCNC2=O)C3)CC1 (racemic)
Response line: 128

Prompt line: Provide MIC value for the following compound: OC(Cn1cncn1)(Cn1cncn1)c1ccc(F)cc1F [FLUCONAZOLE]
Response line: 4

Prompt line: Provide MIC value for the following compound: CCCNC(=O)C1CCN(CC(=O)Nc2ccc3c(c2)NC(=O)C2(CCNC2=O)C3)CC1 (racemic)
Response line: 256

Prompt line: Provide MIC value for the following compound: CCCN(CCC)C(=O)/C=C/C(=O)Nc1ccc2c(c1)NC(=O)C1(CCNC1=O)C2 (racemic)
Response line: 256

Prompt line: Provide MIC value for the following compound: CCCNC(=O)/C=C/C(=O)Nc1ccc2c(c1)NC(=O)C1(CCNC1=O)C2 (racemic)
Response line: 64
